Origin of measurements: patent US20090305995A1

Assay: high throughput permeability (HT-Permeability, log Pe)
Assay type: physicochemical
Conditions: PAMPA, pH 4, pH 4.0; Pe in cm/s; read-out: HT-Permeability logPe pH 4.0 (converted)
Each record here notes measured Papp.
MEASURED PROPERTY: Papp (×10⁻⁶ cm/s)

CC(=O)N[C@H](CC(=O)N[C@H](Cc1c[nH]c2ccccc12)C(=O)N[C@@H](CCCCN)CC(=O)N[C@H](CC(=O)N(C)CCc1ccccc1)C(C)C)Cc1ccccc1
0.1
CCCCCCN(C)C(=O)C[C@H](CCCCN)NC(=O)[C@@H](Cc1c[nH]c2ccccc12)N(C)C(=O)C[C@H](Cc1ccccc1)NC(=O)CC
12.6
NCCCC[C@@H](CC(N)=O)NC(=O)[C@@H](Cc1c[nH]c2ccccc12)NC(=O)C[C@@H](N)Cc1ccccc1 [Compound 59, (S)-β^3-HPhe-(R)-Trp-(S)-β^3-HLys-NH2]
1
NCCCC[C@@H](CC(=O)NC1CCCC1)NC(=O)[C@@H](Cc1c[nH]c2ccccc12)NC(=O)C[C@H](Cc1ccccc1)NC(=O)CCc1ccccc1
0.1
CCCCNC(=O)C[C@H](CCCCN)NC(=O)[C@@H](Cc1c[nH]c2ccccc12)NC(=O)C[C@H](Cc1ccccc1)NC(C)=O
6.31
CCCCNC(=O)C[C@H](CCCCN)NC(=O)[C@@H](Cc1c[nH]c2ccccc12)NC(=O)C[C@H](Cc1ccccc1)NC(=O)CC
7.94

* * *

Assay: high throughput permeability (HT-Permeability, log Pe)
Type: physicochemical
Conditions: PAMPA, pH 4, pH 4.0; Pe in cm/s; read-out: HT-Permeability logPe pH 4.0 (converted)
Each record here notes measured Papp.
MEASURED PROPERTY: Papp (×10⁻⁶ cm/s)

CCCCN(C)C(=O)C[C@H](CCCCN)NC(=O)[C@@H](Cc1c[nH]c2ccccc12)NC(=O)C[C@H](Cc1ccccc1)NC(=O)CCC
1
CC(=O)N[C@H](CC(=O)N[C@H](Cc1cn(C)c2ccccc12)C(=O)N[C@@H](CCCCN)CC(=O)N[C@@H]1CC(=O)O[C@@H]1C)Cc1ccccc1
0.1
CCCCCN(C)C(=O)C[C@H](CCCCN)NC(=O)[C@@H](Cc1c[nH]c2ccccc12)NC(=O)C[C@H](Cc1ccccc1)NC(C)=O
3.98
CCC(=O)N[C@H](CC(=O)N[C@H](Cc1c[nH]c2ccccc12)C(=O)N[C@@H](CCCCN)CC(=O)NC1CCCC1)Cc1ccccc1
1
CN(C(=O)C[C@@H](N)Cc1ccccc1)[C@H](Cc1c[nH]c2ccccc12)C(=O)N[C@@H](CCCCN)CC(N)=O
5.01
C[C@H]1OC(=O)C[C@H]1NC(=O)C[C@H](CCCCN)NC(=O)[C@@H](Cc1c[nH]c2ccccc12)NC(=O)C[C@H](Cc1ccccc1)NC(=O)C1CCCCC1
0.1
NCCCC[C@@H](CC(=O)NC1CCCC1)NC(=O)[C@@H](Cc1c[nH]c2ccccc12)NC(=O)C[C@H](Cc1ccccc1)NC(=O)C12CC3CC(CC(C3)C1)C2
5.01
CCCC(=O)N[C@H](CC(=O)N[C@H](Cc1c[nH]c2ccccc12)C(=O)N[C@@H](CCCCN)CC(=O)NC1CCCC1)Cc1ccccc1
0.1
CCCCCCN(C)C(=O)C[C@H](CCCCN)NC(=O)[C@@H](Cc1c[nH]c2ccccc12)N(Cc1ccccc1)C(=O)C[C@H](Cc1ccccc1)NC(=O)CC
0.1
CCCCCNC(=O)C[C@H](CCCCN)NC(=O)[C@@H](Cc1c[nH]c2ccccc12)NC(=O)C[C@H](Cc1ccccc1)NC(=O)CCC
2.51
CCCCNC(=O)C[C@H](CCCCN)NC(=O)[C@@H](Cc1c[nH]c2ccccc12)NC(=O)C[C@H](Cc1ccccc1)NC(=O)CCC
0.1
C[C@@H](O)[C@@H](CC(N)=O)NC(=O)C[C@H](CCCCN)NC(=O)[C@@H](Cc1c[nH]c2ccccc12)NC(=O)C[C@H](Cc1ccccc1)NC(=O)C12CC3CC(CC(C3)C1)C2
0.1

* * *

Test: high throughput solubility (HT-Solubility)
Assay type: physicochemical
Conditions: pH 1, pH 1.0; read-out: HT-Solubility pH 1.0
Give Condition met when the value for solubility is at least 40 µg/mL. Give Condition not met when it is less.

CCCCCNC(=O)C[C@H](CCCCN)NC(=O)[C@@H](Cc1c[nH]c2ccccc12)N(C)C(=O)C[C@H](Cc1ccccc1)NC(=O)CC [Compound 70]
Condition met
C[C@H]1OC(=O)C[C@H]1NC(=O)C[C@H](CCCCN)NC(=O)[C@@H](Cc1c[nH]c2ccccc12)NC(=O)C[C@H](Cc1ccccc1)NC(=O)C1CCCCC1 [Compound 5]
Condition not met
CCCCCN(C)C(=O)C[C@H](CCCCN)NC(=O)[C@@H](Cc1c[nH]c2ccccc12)N(Cc1ccccc1)C(=O)C[C@H](Cc1ccccc1)NC(=O)CC [Compound 66]
Condition met
CC(=O)N[C@H](CC(=O)N[C@H](Cc1c[nH]c2ccccc12)C(=O)N[C@@H](CCCCN)CC(=O)NC1CCCC1)Cc1ccccc1 [Compound 31]
Condition met
CCCCCCCCC(=O)N[C@H](CC(=O)N[C@H](Cc1c[nH]c2ccccc12)C(=O)N[C@@H](CCCCN)CC(=O)N[C@@H]1CC(=O)O[C@@H]1C)Cc1ccccc1 [Compound 11]
Condition not met

* * *

Test: high throughput solubility (HT-Solubility)
Format: physicochemical
Settings: pH 6.8
Each record here notes measured HT-Solubility pH 6.8.
MEASURED PROPERTY: HT-Solubility pH 6.8 (g 1-1)

CCCCCNC(=O)C[C@H](CCCCN)NC(=O)[C@@H](Cc1c[nH]c2ccccc12)NC(=O)C[C@H](Cc1ccccc1)NC(C)=O [Compound 44]
0.0309
CN(C(=O)C[C@@H](N)Cc1ccccc1)[C@H](Cc1c[nH]c2ccccc12)C(=O)N[C@@H](CCCCN)CC(N)=O
0.1041
CCCCCNC(=O)C[C@H](CCCCN)NC(=O)[C@@H](Cc1c[nH]c2ccccc12)NC(=O)C[C@H](Cc1ccccc1)NC(=O)CC
0.0316
C[C@H]1OC(=O)C[C@H]1NC(=O)C[C@H](CCCCN)NC(=O)[C@@H](Cc1c[nH]c2ccccc12)NC(=O)C[C@@H](N)Cc1ccccc1
0.121
CCCCCN(C)C(=O)C[C@H](CCCCN)NC(=O)[C@@H](Cc1c[nH]c2ccccc12)NC(=O)C[C@H](Cc1ccccc1)NC(=O)CC
0.1294
CCCCCCN(C)C(=O)C[C@H](CCCCN)NC(=O)[C@@H](Cc1c[nH]c2ccccc12)N(Cc1ccccc1)C(=O)C[C@H](Cc1ccccc1)NC(=O)CC
0.015
CC(=O)N[C@H](CC(=O)N[C@H](Cc1c[nH]c2ccccc12)C(=O)N[C@@H](CCCCN)CC(=O)N[C@H](CC(N)=O)[C@@H](C)O)Cc1ccccc1
0.0133
CCCCCNC(=O)C[C@H](CCCCN)NC(=O)[C@@H](Cc1c[nH]c2ccccc12)NC(=O)C[C@H](Cc1ccccc1)NC(C)=O [Compound 45]
0.0619

* * *

Assay: high throughput permeability (HT-Permeability, log Pe)
Format: physicochemical
Settings: PAMPA, pH 8, pH 8.0; Pe in cm/s; read-out: HT-Permeability logPe pH 8.0 (converted)
MEASURED PROPERTY: Papp (×10⁻⁶ cm/s)

CCCCCNC(=O)C[C@H](CCCCN)NC(=O)[C@@H](Cc1c[nH]c2ccccc12)NC(=O)C[C@H](Cc1ccccc1)NC(C)=O
25.1
CCCCCN(C)C(=O)C[C@H](CCCCN)NC(=O)[C@@H](Cc1c[nH]c2ccccc12)N(Cc1ccccc1)C(=O)C[C@H](Cc1ccccc1)NC(=O)CC
3.98
CCCCCN(C)C(=O)C[C@H](CCCCN)NC(=O)[C@@H](Cc1c[nH]c2ccccc12)N(C)C(=O)C[C@H](Cc1ccccc1)NC(=O)CC
2
CCCCNC(=O)C[C@H](CCCCN)NC(=O)[C@@H](Cc1c[nH]c2ccccc12)NC(=O)C[C@H](Cc1ccccc1)NC(=O)CC
10
NCCCC[C@@H](CC(N)=O)NC(=O)[C@@H](Cc1c[nH]c2ccccc12)NC(=O)C[C@@H](N)Cc1ccccc1 [Compound 59, (S)-β^3-HPhe-(R)-Trp-(S)-β^3-HLys-NH2]
3.16
CCCCCNC(=O)C[C@H](CCCCN)NC(=O)[C@@H](Cc1c[nH]c2ccccc12)N(C)C(=O)C[C@H](Cc1ccccc1)NC(=O)CC
12.6
CCC(=O)N[C@H](CC(=O)N[C@H](Cc1c[nH]c2ccccc12)C(=O)N[C@@H](CCCCN)CC(N)=O)Cc1ccccc1
1.26
CCCCN(C)C(=O)C[C@H](CCCCN)NC(=O)[C@@H](Cc1c[nH]c2ccccc12)NC(=O)C[C@H](Cc1ccccc1)NC(=O)CCC
5.01

* * *

Listed here: molecules with reported Kd for UniProt P31391.
Sequence (P31391 whole entry): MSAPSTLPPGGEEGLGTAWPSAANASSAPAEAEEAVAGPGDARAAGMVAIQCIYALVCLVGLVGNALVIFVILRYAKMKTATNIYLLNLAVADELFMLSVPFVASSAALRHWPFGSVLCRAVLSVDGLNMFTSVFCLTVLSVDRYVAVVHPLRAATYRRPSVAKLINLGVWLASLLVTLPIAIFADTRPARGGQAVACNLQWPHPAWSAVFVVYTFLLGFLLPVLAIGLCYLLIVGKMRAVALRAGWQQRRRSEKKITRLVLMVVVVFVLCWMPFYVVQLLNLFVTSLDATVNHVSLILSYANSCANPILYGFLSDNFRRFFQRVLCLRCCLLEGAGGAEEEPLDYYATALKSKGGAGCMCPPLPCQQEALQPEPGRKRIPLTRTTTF
MEASURED PROPERTY: Kd (nM)

CCN(CC)C(=O)C[C@@H](NC(=O)C[C@H](CCCCN)NC(=O)[C@@H](Cc1c[nH]c2ccccc12)NC(=O)C[C@H](Cc1ccccc1)NC(C)=O)C(C)C [Compound 22]
166
CC(=O)N[C@H](CC(=O)N[C@H](Cc1c[nH]c2ccccc12)C(=O)N[C@@H](CCCCN)CC(=O)NC1CCCC1)Cc1ccccc1 [Compound 30]
62
CCCCCN(C)C(=O)C[C@H](CCCCN)NC(=O)[C@@H](Cc1c[nH]c2ccccc12)NC(=O)C[C@H](Cc1ccccc1)NC(=O)CC [Compound 48]
7
CCCCCNC(=O)C[C@H](CCCCN)NC(=O)[C@@H](Cc1c[nH]c2ccccc12)N(C)C(=O)C[C@H](Cc1ccccc1)NC(=O)CC [Compound 70]
35
C[C@@H](O)[C@@H](CC(N)=O)NC(=O)C[C@H](CCCCN)NC(=O)[C@@H](Cc1c[nH]c2ccccc12)NC(=O)C[C@H](Cc1ccccc1)NC(=O)C12CC3CC(CC(C3)C1)C2 [Compound 18]
6170
NCCCC[C@@H](CC(N)=O)NC(=O)[C@@H](Cc1c[nH]c2ccccc12)NC(=O)C[C@@H](N)Cc1ccccc1 [Compound 59, (S)-β^3-HPhe-(R)-Trp-(S)-β^3-HLys-NH2]
1510
CC(=O)N[C@H](CC(=O)N[C@H](Cc1c[nH]c2ccccc12)C(=O)N[C@@H](CCCCN)CC(=O)N[C@H](CC(=O)N(C)CCc1ccccc1)C(C)C)Cc1ccccc1 [Compound 25]
115
